# MIC per record follows
System: Enterococcus faecalis 51299 VanB
methodSummary: MIC, broth micro dilution
particulars: Enterococcus faecalis, 51299VANB
endpoint: MIC (mg/L)

> print(dat)
                                   compound  op  observed
1  C=C(C)[C@@H]1CCC(C)=C[C@H]1c1c(O)cc(CCCCC)cc1O [Compound 1, (−)-Cannabidiol]   =         4
2  C=C(C)[C@@H]1CCC(C)=C[C@H]1c1c(O)c(CN(CC)CC)c(CCCCC)c(CN(CC)CC)c1O [Compound 13]   >       256
3  CCCCCc1c(CN(CC)CC)c(O)c(C/C=C(\C)CCC=C(C)C)c(O)c1CN(CC)CC [Compound 21b]   =        64
4  CCCCCc1cc(O)c(C/C=C(\C)CCC=C(C)C)c(O)c1 [Compound 2, (−)-cannabigerol]   =         4
5  C=C(C)[C@@H]1CCC(C)=C[C@H]1c1c(O)cc(CCCCC)c2c1OCN(CCCC(=O)O)C2 [Compound 12]   >       256
6  C=C(C)[C@@H]1CCC(C)=C[C@H]1c1c(O)cc(CCCCC)c(COCC)c1O [Compound 9]   =         8
7  CCCCCc1cc(O)c(C/C=C(\C)CCC=C(C)C)c2c1CN(Cc1ccccc1)CO2 [Compound 17a]   =        64
8  C=C(C)[C@@H]1CCC(C)=C[C@H]1c1c(O)cc(CCCCC)c2c1OCN(Cc1ccccc1)C2 [Compound 10]   >       256
9  CCCCCc1cc(O)c(C/C=C(\C)CCC=C(C)C)c2c1CN(CCCC(=O)O)CO2 [Compound 20]   =       128
